assay: in vitro; conditions: mouse

compound: CCC(CCC(C)C1CCC2C3CC=C4CC(OC5OC(CO)C(O)C(O)C5O)CCC4(C)C3CCC12C)C(C)C [β-sitosterol glucoside (6), β-sitosterol 3-O-D-glucopyranoside]
CC50 at 48 h: 28.6 µM

###

Tested on: L. donovani amastigotes
Experiment: Inhibitory assay against intracellular L. donovani amastigotes in Raw 264.7 macrophages (resazurin)
Format: cell-based
Settings: Leishmania donovani, RAW264.7, isolated compounds, mean ± SD
Experimental: The effect of plant isolates against the intracellular amastigote form of L. donovani was evaluated essentially as described by Jain et al. with some modifications. […] Resazurin reagent (250 μg/mL) was thereafter added in each well and the plates were incubated for 24 h followed by fluorescence recording at λexcitation = 530 nm and λemission = 590 nm using a Tecan Infinite M200 microplate reader (Tecan). […]
pIC50: −log10 of the molar value.
Listed compounds paired with reported pIC50

compound: OC1CC(O)C(O)C(O)C1O (stereo not shown)
pIC50: 3.92

compound: CCC(CCC(C)C1CCC2C3CC=C4CC(OC5OC(CO)C(O)C(O)C5O)CCC4(C)C3CCC12C)C(C)C [β-sitosterol glucoside (6), β-sitosterol 3-O-D-glucopyranoside]
pIC50: 4.49

compound: C=C(C)[C@@H]1CC[C@]2(C)CC[C@]3(C)[C@H](CC[C@@H]4[C@@]5(C)CC[C@H](O)C(C)(C)[C@@H]5CC[C@]43C)[C@@H]12
pIC50: 4.33

compound: C=C(C)[C@@H]1CC[C@]2(C(=O)O)CC[C@]3(C)[C@H](CC[C@@H]4[C@@]5(C)CC[C@H](O)C(C)(C)[C@@H]5CC[C@]43C)[C@@H]12
pIC50: 4.73

###

experiment: in vitro; conditions: mouse
endpointName: CC50 (µM)

compound: OC1CC(O)C(O)C(O)C1O (centres unmarked)
endpointName: CC50
readoutUnits: µM
valueModifier: >
assayValue: 1220
--
compound: C=C(C)[C@@H]1CC[C@]2(C(=O)O)CC[C@]3(C)[C@H](CC[C@@H]4[C@@]5(C)CC[C@H](O)C(C)(C)[C@@H]5CC[C@]43C)[C@@H]12
endpointName: CC50
readoutUnits: µM
valueModifier: =
assayValue: 82.4

###

tested on: L. donovani promastigotes (MHOM/SD/62/1S); experiment: Inhibitory assay against L. donovani promastigotes (resazurin colorimetric assay); format: cell-based; settings: Leishmania donovani; isolated compounds; mean ± SD, triplicate; read-out: IC50 (Promastigotes)
pIC50: −log10 of the molar value.

molecule: C=C(C)[C@@H]1CC[C@]2(C)CC[C@]3(C)[C@H](CC[C@@H]4[C@@]5(C)CC[C@H](O)C(C)(C)[C@@H]5CC[C@]43C)[C@@H]12 [Lupeol (1), Lupeol]
pIC50: 4.63

molecule: C=C(C)[C@@H]1CC[C@]2(C(=O)O)CC[C@]3(C)[C@H](CC[C@@H]4[C@@]5(C)CC[C@H](O)C(C)(C)[C@@H]5CC[C@]43C)[C@@H]12 [Betulinic acid (3), Betulinic acid]
pIC50: 4.86

molecule: C[C@@H]1[C@H](O)[C@@H](C)/C=C/C=C/C=C/C=C/C=C/C=C/C=C/[C@H](O[C@@H]2O[C@H](C)[C@@H](O)[C@H](N)[C@@H]2O)C[C@@H]2O[C@](O)(C[C@@H](O)C[C@@H](O)[C@H](O)CC[C@@H](O)C[C@@H](O)CC(=O)O[C@H]1C)C[C@H](O)[C@H]2C(=O)O [Amphotericin B, reference compound]
pIC50: 6.43

molecule: OC1CC(O)C(O)C(O)C1O (centres unmarked) [1-deoxyinositol (7), 1-deoxyinositol]
pIC50: 3.62

molecule: CCC(CCC(C)C1CCC2C3CC=C4CC(OC5OC(CO)C(O)C(O)C5O)CCC4(C)C3CCC12C)C(C)C [β-sitosterol glucoside (6), β-sitosterol 3-O-D-glucopyranoside]
pIC50: 4.31
